Task for the reader: assign each of the following molecules its reported IC50.
# Experimental target: recombinant human LTA4 hydrolase (rhLTA4H) (Homo sapiens)
# Construct: made in house; host or cells: Spodoptera frugiperda (Sf-9) cells, baculovirus (pFastBac1)
# Sequence (P09960 1-611): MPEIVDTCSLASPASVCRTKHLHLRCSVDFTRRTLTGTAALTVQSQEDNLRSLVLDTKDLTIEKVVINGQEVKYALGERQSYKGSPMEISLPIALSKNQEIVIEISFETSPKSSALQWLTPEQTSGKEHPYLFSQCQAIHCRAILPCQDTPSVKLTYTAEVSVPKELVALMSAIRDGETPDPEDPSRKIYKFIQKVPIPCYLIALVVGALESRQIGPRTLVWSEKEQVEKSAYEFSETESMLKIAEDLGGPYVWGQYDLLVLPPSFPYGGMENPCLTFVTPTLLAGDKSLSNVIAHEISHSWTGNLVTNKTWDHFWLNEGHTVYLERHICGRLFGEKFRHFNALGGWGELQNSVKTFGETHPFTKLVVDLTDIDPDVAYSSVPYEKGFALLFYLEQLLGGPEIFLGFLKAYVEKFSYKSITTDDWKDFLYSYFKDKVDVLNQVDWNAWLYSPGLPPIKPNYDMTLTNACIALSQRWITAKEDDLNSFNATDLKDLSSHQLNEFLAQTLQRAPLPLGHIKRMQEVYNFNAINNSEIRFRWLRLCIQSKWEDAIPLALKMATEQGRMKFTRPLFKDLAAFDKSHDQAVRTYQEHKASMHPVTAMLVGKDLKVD
# Assay procedure: Recombinant human LTA4 hydrolase assay for LTA4 hydrolase inhibitor activity
# Type: biochemical
# Condition notes: recombinant human LTA4H, LTB4 quantified by enzyme-linked immunoassay; average of one to three determinations; read-out: IC50
Returns: string containing the numeric result and its unit.

Record excerpt, results attached:
Exercise: Request the reported IC50 associated with O=C1c2ccccc2CC1Oc1ccc(OCCN2CCCCC2)cc1 (centres unmarked) [Example 126]
Solution: 64 nM

Exercise: Request the reported IC50 associated with COC(=O)NC1CCN(Cc2ccc(OCCCc3ccccc3)cc2)CC1 [Example 121]
Solution: 8 nM

Exercise: Request the reported IC50 associated with O=C(Cc1ccc(OCCN2CCCCC2)cc1)Nc1ccccc1O [Example 44]
Solution: 64 nM

Exercise: Request the reported IC50 associated with CS(=O)(=O)NC1CCN(Cc2ccc(OCCc3ccccc3)cc2)CC1 [Example 93]
Solution: 18 nM

Exercise: Request the reported IC50 associated with CN(C(=O)Oc1ccc(OCCN2CCC(O)(c3ccccc3)CC2)cc1)c1ccccc1 [Example 40]
Solution: 73 nM

For the 3 molecules below, give their IC50 values.
1. COC(=O)C1CCN(CCc2ccc(OCC(=O)c3ccccc3)cc2)CC1 [Example 75]
2. NC(=O)C1CCN(Cc2ccc(OCCCc3ccccc3)cc2)CC1 [Example 110]
3. CC(=O)NC1CCN(Cc2ccc(OCCCc3ccccc3)cc2)CC1 [Example 120]

Solution:
1: 42 nM; 2: 9 nM; 3: 25 nM
